# TARGET_UNDER_TEST: RhlR (Pseudomonas aeruginosa)
# EXPERIMENTAL_PROTOCOL: P. aeruginosa PAO-JP2
# Format: cell-based
# TEST_CONTEXT: read-out: EC50 (RhlR agonism, P. aeruginosa); P. aeruginosa PAO-JP2 prhlI-LVAgfp; in the presence of 100 nM OdDHL
Listed here are compounds together with their documented pEC50.
pEC50 here: minus log base 10 of the concentration, concentration in moles per litre.

{"columns": ["COMPOUND", "READOUT_NUMBER"],
 "data": [
  ["O=C(NC1CCOC1=O)C1CCC1 (stereo not shown) [Compound 17, cyclobutanoyl HL]", 5.85]
]}

Request: State its pEC50 for this compound: CCCC(=O)NC1CCCC1=O (stereo not shown) [Compound 28]
Result: 4.84

Request: State its pEC50 for this compound: CC(C)CC(=O)N[C@H]1CCOC1=O [Compound 7, isovaleryl HL]
Result: 5.85

Request: State its pEC50 for this compound: CCCC(=O)NC1CCSC1=O (stereo not shown) [Compound 26]
Result: 5.42

###

Listed here are molecules together with their documented % activation.
# TARGET_UNDER_TEST: RhlR (Pseudomonas aeruginosa)
# EXPERIMENTAL_PROTOCOL: E. coli RhlR reporter agonism assay
# Type: cell-based, P. aeruginosa
# TEST_CONTEXT: compounds screened at 10 μM; RhlR activity relative to BHL at 1 mM; E. coli reporter
Note: unit % is implicit; provide only the numeric part.

Example results:
{"columns": ["MOLECULE", "% activation / %"],
 "data": [
  ["CCCC(=O)NC1CCCC1=O (stereo not drawn) [Compound 28]", 35],
  ["CCC(C)C(=O)NC1CCOC1=O (stereo not drawn) [Compound 8, 2-methylbutanoyl HL]", 55],
  ["O=C(NC1CCOC1=O)C1CCC1 (stereo not drawn) [Compound 17, cyclobutanoyl HL]", 79],
  ["CCCC(=O)NC1CCSC1=O (stereo not drawn) [Compound 26]", 71],
  ["CCCC(=O)N[C@H]1CCNC1=O [Compound 27]", 1],
  ["CC(C)CC(=O)N[C@H]1CCOC1=O [Compound 7, isovaleryl HL]", 86],
  ["CCCC(=O)N[C@H]1CCOC1=O [Compound 1, N-butanoyl-L-homoserine lactone, reference compound]", 51],
  ["CCCC(=O)NC1CCOC1 (stereo not drawn) [Compound 30]", 0]
]}

Request: Recall the reported % activation of CCCC(=O)N[C@@H]1CCOC1=O [Compound 25, D-BHL] on RhlR (Pseudomonas aeruginosa) and write it down.
Result: 2

###

# TARGET_UNDER_TEST: RhlR (Pseudomonas aeruginosa, UniProt P54292)
# Sequence (P54292 whole entry): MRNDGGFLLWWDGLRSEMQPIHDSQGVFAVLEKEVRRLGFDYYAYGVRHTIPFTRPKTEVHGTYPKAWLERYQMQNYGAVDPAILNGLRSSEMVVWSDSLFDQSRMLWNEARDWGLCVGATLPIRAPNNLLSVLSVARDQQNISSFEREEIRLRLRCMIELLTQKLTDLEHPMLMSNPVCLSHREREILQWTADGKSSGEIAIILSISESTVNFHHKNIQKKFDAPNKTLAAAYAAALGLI
# EXPERIMENTAL_PROTOCOL: E. coli RhlR reporter agonism assay
# Format: cell-based, P. aeruginosa
# TEST_CONTEXT: read-out: EC50 (RhlR agonism, E. coli); E. coli RhlR reporter; dose-response
Listed here are molecules together with their documented log10 of EC50.
Recall that a logarithmic scale is used here: each number is log10 of EC50 in µM.

Example results:
{"columns": ["MOLECULE", "log10 of EC50"],
 "data": [
  ["O=C(NC1CCOC1=O)C1CCC1 (centres unmarked)", 0.25],
  ["CCC(C)C(=O)NC1CCOC1=O (centres unmarked)", 0.89],
  ["CCCC(=O)NC1CCSC1=O (centres unmarked)", 0.69],
  ["CCCC(=O)NC1CCCC1=O (centres unmarked)", 1.44]
]}

Now turn to the next molecule.
Request: State its log10 of EC50 for this molecule: CC(C)CC(=O)N[C@H]1CCOC1=O
Result: 0.01

###

# TARGET_UNDER_TEST: RhlR (Pseudomonas aeruginosa, UniProt P54292)
# EXPERIMENTAL_PROTOCOL: E. coli RhlR reporter agonism assay
# Format: cell-based, P. aeruginosa
# TEST_CONTEXT: read-out: EC50 (RhlR agonism, E. coli); E. coli RhlR reporter; dose-response; listed as 1 (BHL)
MEASURED_METRIC: EC50 (µM)
Note: unit µM is implicit; provide only the numeric part.

Request: State its EC50 for this molecule: CCCC(=O)N[C@H]1CCOC1=O [Compound 1, N-butanoyl-L-homoserine lactone, reference compound]
Result: 8.95
